Recorded measurements of pIC50, one per entry
subject-of-test: HCV polymerase 1B (Δ21 NS5B, BK) (Hepatitis C virus genotype 1b)
Construct: 20 to 50 nM Δ21 NS5B
Sequence (P26663 2420-2989, stated change not applied): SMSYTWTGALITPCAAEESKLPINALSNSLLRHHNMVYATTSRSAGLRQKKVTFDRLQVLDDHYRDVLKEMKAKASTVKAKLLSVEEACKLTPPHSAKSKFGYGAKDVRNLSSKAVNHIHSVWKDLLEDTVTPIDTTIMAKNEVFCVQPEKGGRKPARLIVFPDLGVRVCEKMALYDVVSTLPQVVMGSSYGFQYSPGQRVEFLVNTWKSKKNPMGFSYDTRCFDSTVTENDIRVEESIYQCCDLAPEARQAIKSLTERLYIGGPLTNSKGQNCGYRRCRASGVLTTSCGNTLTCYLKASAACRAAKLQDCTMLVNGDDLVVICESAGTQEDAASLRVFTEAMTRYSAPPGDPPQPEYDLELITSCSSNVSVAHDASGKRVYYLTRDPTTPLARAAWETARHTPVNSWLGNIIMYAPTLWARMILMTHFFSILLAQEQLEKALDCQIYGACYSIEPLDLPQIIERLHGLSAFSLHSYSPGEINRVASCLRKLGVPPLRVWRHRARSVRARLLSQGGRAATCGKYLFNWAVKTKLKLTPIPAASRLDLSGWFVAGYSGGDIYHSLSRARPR
protocol-text: biochemical
pIC50: −log10 of the molar value.

// solved cases for pIC50 follow
> print(dat)
                                   molecule       reading
1  COc1c(C#Cc2ccc(NS(C)(=O)=O)cc2Cl)cc(N2CCC(=O)NC2=O)cc1C(C)(C)C        > 8.00
2  COc1c(-c2ccc3c(c2)CC=C3CNS(C)(=O)=O)cc(-n2ccc(=O)[nH]c2=O)cc1-c1ccco1        > 8.00
3  COc1c(C(=O)Nc2ccc(N(COC(C)=O)S(C)(=O)=O)cc2)cc(N2CCC(=O)NC2=O)cc1C(C)(C)C        < 6.00
4  CC(C)(C)c1cc(N2CCC(=O)NC2=O)cc(C(=O)Nc2ccccc2S(N)(=O)=O)c1O  7.00 to 8.00
5  COc1c(C(=O)N(C)c2ccc(NS(C)(=O)=O)cc2)cc(N2CCC(=O)NC2=O)cc1C(C)(C)C  6.00 to 7.00

Qu. Using the record for COC(=O)c1cc(NS(C)(=O)=O)ccc1C#Cc1cc(-n2ccc(=O)[nH]c2=O)cc(C(C)(C)C)c1OC , report its pIC50.
Ans. 7.00 to 8.00

----------
subject-of-test: HCV polymerase 1A (Δ21 NS5B, H77) (Hepatitis C virus genotype 1a, UniProt P27958)
Construct: 20 to 50 nM Δ21 NS5B
Sequence (P27958 2421-2990, stated change not applied): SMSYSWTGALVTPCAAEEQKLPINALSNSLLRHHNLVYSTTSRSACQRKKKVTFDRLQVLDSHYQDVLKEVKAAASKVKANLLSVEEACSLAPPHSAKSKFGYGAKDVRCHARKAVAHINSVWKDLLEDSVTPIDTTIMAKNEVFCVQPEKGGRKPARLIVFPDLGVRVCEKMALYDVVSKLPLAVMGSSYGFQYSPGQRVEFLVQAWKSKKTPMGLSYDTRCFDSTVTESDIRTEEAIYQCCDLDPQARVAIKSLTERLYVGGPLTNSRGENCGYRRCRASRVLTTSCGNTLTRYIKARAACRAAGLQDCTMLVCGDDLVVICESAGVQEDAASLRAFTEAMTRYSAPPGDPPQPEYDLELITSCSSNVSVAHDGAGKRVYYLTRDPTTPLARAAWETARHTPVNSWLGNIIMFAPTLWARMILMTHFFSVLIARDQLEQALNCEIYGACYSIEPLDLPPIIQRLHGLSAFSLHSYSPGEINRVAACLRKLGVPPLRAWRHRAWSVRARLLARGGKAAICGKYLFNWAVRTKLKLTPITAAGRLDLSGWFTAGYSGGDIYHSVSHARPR
protocol-text: biochemical
settings: IC50 1a
pIC50: −log10 of the molar value.
endpoint: pIC50

For orientation, consider the following solved cases.
> print(dat)
                                   molecule  endpoint       reading
1  CCNC(=O)CN1C(=O)CCN(c2cc(C(=O)Nc3ccc(N(CC(=O)NCC)S(C)(=O)=O)cc3)c(OC)c(C(C)(C)C)c2)C1=O [IA-L3-1.115]     pIC50        < 6.00
2  COc1c(-c2ccsc2)cc(-n2ccc(=O)[nH]c2=O)cc1-c1ccc2c(c1)CC=C2CNS(C)(=O)=O [IB-L0-2.62]     pIC50  7.00 to 8.00
3  Cc1noc(C)c1S(=O)(=O)Nc1ccc(NC(=O)c2cc(N3CCC(=O)NC3=O)cc(C(C)(C)C)c2O)cc1 [IA-L3-1.13]     pIC50  6.00 to 7.00
4  COc1c(C(=O)Nc2ccc(N(C(=O)C(C)C)S(C)(=O)=O)cc2)cc(N2CCC(=O)NC2=O)cc1C(C)(C)C [IA-L3-1.72]     pIC50        < 6.00
5  CC(C)(C)c1cc(-n2ccc(=O)[nH]c2=O)cc(C(=O)Nc2ccc(NS(C)(=O)=O)cc2)c1O [IB-L3-1.2]     pIC50  7.00 to 8.00

Attention now shifts to the item below.
Qu. Find the recorded pIC50 belonging to COc1c(-c2ccc3c(c2)CC[C@H]3C(C)(C)NS(C)(=O)=O)cc(-n2ccc(=O)[nH]c2=O)cc1C(C)(C)C (single isomer, unassigned) [IB-L0-2.37] and report it.
Ans. 6.00 to 7.00

----------
The reader will find reported pEC50 values listed item by item below.
Tested on: genotype 1a-H77 subgenomic replicon cell line
protocol-text: microbe, parasite or virus in culture
Format: cell-based, HCV
settings: Hepatitis C virus, read-out: EC50 1a
pEC50: −log10 of the molar value.

Use the examples below as a reference point.
> print(dat)
                                   compound  endpoint       reading
1  COc1c(-c2ccc3nc(NS(C)(=O)=O)cnc3c2)cc(-n2ccc(=O)[nH]c2=O)cc1C(C)(C)C     pEC50        < 6.00
2  COc1c(/C=C/c2ccc(NS(C)(=O)=O)cc2)cc(-n2ccc(=O)[nH]c2=O)cc1-c1ccco1     pEC50  6.00 to 7.00

Qu. I'd like to know its pEC50. The compound in question is COc1c(C(=O)Nc2cc(CN(C)S(C)(=O)=O)cs2)cc(N2CCC(=O)NC2=O)cc1C(C)(C)C
Ans. < 6.00

Qu. pEC50 for COc1c(-c2ccc3c(c2)CC[C@H]3C(C)(C)NS(C)(=O)=O)cc(-n2ccc(=O)[nH]c2=O)cc1C(C)(C)C (single isomer, unassigned) ?
Ans. < 6.00
